Test system: Aβ1-40
Assay: Aβ1-40 content in conditioned medium of primary cortico-hippocampal neuron cultures from Tg2576 mice (ELISA; primary and secondary dose-response screening)
Type: cell-based, mouse
Conditions: Mus musculus, Neuron, 24 h, primary screening, drug 100 μM, Tg2576 neuron cultures; table sorted by Aβ1-42; read-out: Ab1-40 (% of ctl)
Structures can show the parent of a compound that is named as a salt.
Exercise: for every item that follows, state its recorded activity at 100 µM.
Your answer should be a plain number; it is taken to be in %.

Please give the measured activity at 100 µM for this compound: NS(=O)(=O)c1cc2c(cc1Cl)NC(C1CC3C=CC1C3)NS2(=O)=O (stereo not drawn) [Cyclothiazide]
71.1

// query: NS(=O)(=O)c1cc(C2(O)NC(=O)c3ccccc32)ccc1Cl (stereo not drawn) [Chlorthalidone]
108

Next record, please: OCCN(CCO)c1nc(N2CCCCC2)c2nc(N(CCO)CCO)nc(N3CCCCC3)c2n1 [Dipyridamole]
72.2

Thanks! And CC(C)(C)NCC(O)COc1cccc2[nH]c(=O)[nH]c12 (stereo not drawn) ?
99.2

Ok, now C1CCC(C(CC2CCCCN2)C2CCCCC2)CC1 (stereo not drawn) [Perhexiline Maleate]
4.8

And then COC(=O)C1=C(C)NC(C)=C(C(=O)OCCN(C)Cc2ccccc2)C1c1cccc([N+](=O)[O-])c1 (stereo not drawn) [Nicardipine Hydrochloride] , what is it?
10.7

Next: COc1ccc(OC)c(C(O)CNC(=O)CN)c1 (stereo not drawn) [Midodrine Hydrochloride]
86

Thanks! And CCN(CC)CCOC(=O)C(Cc1cccc2ccccc12)CC1CCCO1 (stereo not drawn) [Nafronyl Oxalate] ?
134

What would you report for Cc1cc(C(C)(C)C)c(O)c(C)c1CC1=NCCN1 [Oxymetazoline Hydrochloride] ?
78

Follow-up entry: COC(=O)[C@@H]1[C@H]2C[C@H]3c4[nH]c5ccccc5c4CCN3C[C@@H]2CC[C@@H]1O [Yohimbine Hydrochloride]
66.2

Again, but for C=CCc1ccccc1OCC(O)CNC(C)C (stereo not drawn) [Alprenolol]
93.8

Same again, this time with CCOC(=O)C(C)(C)Oc1ccc(Cl)cc1 [Clofibrate]
90.9

// query: Nc1cc(N2CCCCC2)nc(N)[n+]1[O-] [Minoxidil]
94.2

Also check CCCNCC(O)COc1ccccc1C(=O)CCc1ccccc1 (stereo not drawn) [Propafenone Hydrochloride]
36.3

Now the compound O=c1oc2ccccc2c(O)c1Cc1c(O)c2ccccc2oc1=O [Dicumarol]
51.3

Repeat with COc1ccc(C2C(=O)c3ccccc3C2=O)cc1 [Anisindione]
90.1

Try CO[C@]12C[C@@H](COC(=O)c3cncc(Br)c3)CN(C)[C@@H]1Cc1cn(C)c3cccc2c13 [Nicergoline] next.
76.1

What about C=C[C@H]1C[N@@]2CC[C@H]1C[C@@H]2[C@@H](O)c1ccnc2ccc(OC)cc12 [Quinidine Gluconate] ?
63.3

----------
System: primary cortico-hippocampal neuron cultures
Assay: MTT in primary screening
Details: Primary Screening; table sorted by Aβ1-40
Where a name gives a salt, the structure may show the parent alone.
metric: MTT (% of ctl)

Entry under review: COc1cc2c3cc1Oc1c(OC)c(OC)cc4c1[C@@H](Cc1cccc(c1)Oc1ccc(c(O)c1)C[C@@H]3N(C)CC2)N(C)CC4 [Berbamine Hydrochloride] . Reported MTT (% of ctl)?
97.6 % of ctl

Quick one: NS(=O)(=O)c1cc2c(cc1Cl)NC(C(Cl)Cl)NS2(=O)=O (stereo not shown) [Trichlormethiazide]
105.5 % of ctl

Same lookup for NC[C@H]1CC[C@H](C(=O)O)CC1 , please.
96.8 % of ctl

COc1ccccc1OCCNCC(O)COc1cccc2[nH]c3ccccc3c12 (stereo not shown) , same question.
66.7 % of ctl

Numbers sourced from patent US20100029654A1.
